Value source: PubChem BioAssay (NCI)

# TGI values compiled below
Tested on: MDA-MB-231 breast
protocol_description: NCI tumour cell line growth inhibition, 48 h

Take a look at these entries with their results.
>  <compound>
CN(C)CC1CCn2c(c(C3=C(c4cn(C)c5ccccc45)C(=O)NC3=O)c3ccccc32)C1 (stereo not given)

>  <recorded_value>
7.56 µM

$$$$
>  <compound>
N#CC1=C(N2CCOCC2)CCC1

>  <recorded_value>
> 100 µM

$$$$
>  <compound>
Cc1ccnc2nc3[nH]c4ccccc4c3cc12

>  <recorded_value>
> 100 µM

$$$$
>  <compound>
c1ccc2cc(Cn3c(-c4ccc5ccccc5c4)[n+](Cc4ccc5ccccc5c4)c4ccccc43)ccc2c1

>  <recorded_value>
0.961 µM

$$$$
>  <compound>
CCOC(=O)c1cc2ncccc2c2ccccc12

>  <recorded_value>
> 100 µM

$$$$
>  <compound>
C=C[C@]1(C)C=C2C(=O)[C@@]3(O)OC(=O)[C@@]4(CCCC(C)(C)[C@H]34)[C@@]2(O)CC1

>  <recorded_value>
3.43 µM

$$$$
>  <compound>
CC(C)N1CCCOC(c2ccc([N+](=O)[O-])cc2)O1 (stereo not given)

>  <recorded_value>
> 100 µM

$$$$
>  <compound>
C/C(=C\c1ccn(-c2ccc(N)cc2)n1)[C@@H]1C[C@@H]2O[C@]2(C)CCC[C@H](C)[C@H](O)[C@@H](C)C(=O)C(C)(C)[C@@H](O)CC(=O)O1

>  <recorded_value>
> 50 µM

$$$$
>  <compound>
COc1cc(/C=C2\N=C(c3ccccc3)N(/N=C/c3cc4cc(C)ccc4nc3Cl)C2=O)cc(OC)c1OC

>  <recorded_value>
> 100 µM

$$$$

# ---- query compound ----
Q: Give the measured TGI of O=c1[nH]c2ccsc2c(=O)n1COCc1ccccc1 .
Result: > 100 µM

----------
# TGI values compiled below
Tested on: PC-3 prostate
protocol_description: NCI tumour cell line growth inhibition, 48 h

Take a look at these entries with their results.
>  <compound>
C=CC(c1ccccc1)C1(O)c2cccc(O)c2C(=O)c2c(O)cccc21 (centres undefined)

>  <system>
PC-3 prostate

>  <TGI>
28.1 µM

$$$$
>  <compound>
Cc1ccc(NC(=O)c2ccnc(N3CCCC3)c2)cc1-c1ccc(C(=O)NCC2CC2)cc1

>  <system>
PC-3 prostate

>  <TGI>
> 25 µM

$$$$
>  <compound>
C/C(=N/NC(=S)N1CCCC1)c1cccc(/C(C)=N\NC(=S)N2CCCC2)n1

>  <system>
PC-3 prostate

>  <TGI>
5.36 µM

$$$$
>  <compound>
CCOn1cc(C2=C(c3c[nH]c4ccccc34)C(=O)NC2=O)c2ccccc21

>  <system>
PC-3 prostate

>  <TGI>
17.3 µM

$$$$
>  <compound>
C=C1CC(COc2ccc3ccc(=O)oc3c2)(c2ccccc2)OC1=O (centres undefined)

>  <system>
PC-3 prostate

>  <TGI>
7.58 µM

$$$$

Q: Give the measured TGI of CC(C)C(Cl)CC/C(CBr)=C(\Cl)CCl (centres undefined) .
Result: 23.9 µM

Q: Give the measured TGI of O=C1CCSc2c(cnc3ccccc23)N1 .
Result: > 100 µM

----------
# TGI values compiled below
Tested on: SNB-19 CNS
protocol_description: NCI tumour cell line growth inhibition, 48 h

Take a look at these entries with their results.
>  <molecule>
O=C(O)c1cccc(CC(Br)C(=O)O)c1 (stereo not given)

>  <TGI>
> 100 µM

$$$$
>  <molecule>
Cc1n[nH]c(=O)n1/N=C/c1cccnc1

>  <TGI>
> 100 µM

$$$$
>  <molecule>
Cc1cc(C)n(-c2c(O)ccc(O)c2-n2nc(C)cc2C)n1

>  <TGI>
> 100 µM

$$$$
>  <molecule>
Nc1ccc(Oc2ccc(C3(c4ccc(Oc5ccc(N)c(O)c5)cc4)C4CC5C6CC7CC5C3C(C7)C6C4)cc2)cc1O

>  <TGI>
24.2 µM

$$$$

# ---- query molecule ----
Q: Recall the recorded TGI for COc1ccc2c(c1)[n+]([O-])c(-c1nc3ccccc3s1)c(N)[n+]2[O-] with SNB-19 CNS and state it.
Result: > 100 µM
